- Tested on: active Rac (Rac-GTP) in p190-BCR-ABL Ba/F3 cells
- assay-protocol: Active GTPase pull-down (GST-PAK-GBD)
- Format: cell-based, murine
- recorded-conditions: Mus musculus, BaF3, 1 h; read-out: IC50, Rac activation
parameter-measured: IC50 (µM)
Respond with the bare value in µM.

stdin: # get_value(readout='IC50', item= OC1(c2ccccn2)N=C(Nc2nc3ccccc3[nH]2)N=C1c1ccccn1 (stereo not shown) [IODVA1] )
stdout: 1

====

- study-system: Rac1 (Homo sapiens, UniProt P63000)
parameter-measured: Kd

stdin: # get_value(readout='Kd', item= OC1(c2ccccn2)N=C(Nc2nc3ccccc3[nH]2)N=C1c1ccccn1 (stereo not shown) [IODVA1] )
stdout: ~35.5 µM

====

- study-system: LARG (DH/PH) (Homo sapiens, UniProt Q9NZN5)
- Construct: the catalytic domain (DH/PH) of the RhoGEF LARG served as negative control; MBP
- Sequence (Q9NZN5 765-1138 limits assumed): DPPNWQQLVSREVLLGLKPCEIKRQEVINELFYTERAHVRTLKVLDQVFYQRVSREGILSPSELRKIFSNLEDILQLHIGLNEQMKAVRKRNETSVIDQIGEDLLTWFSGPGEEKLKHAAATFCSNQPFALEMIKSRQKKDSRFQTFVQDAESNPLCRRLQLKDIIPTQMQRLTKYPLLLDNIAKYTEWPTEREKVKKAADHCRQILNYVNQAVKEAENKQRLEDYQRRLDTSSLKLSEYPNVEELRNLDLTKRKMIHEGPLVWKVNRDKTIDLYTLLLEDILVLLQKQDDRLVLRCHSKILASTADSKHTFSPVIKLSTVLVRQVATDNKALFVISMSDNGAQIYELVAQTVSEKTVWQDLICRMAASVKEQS
- assay-protocol: Microscale thermophoresis (MST) binding
- recorded-conditions: no saturation at highest concentration tested, read-out: Kd, best estimate
parameter-measured: Kd

stdin: # get_value(readout='Kd', item= OC1(c2ccccn2)N=C(Nc2nc3ccccc3[nH]2)N=C1c1ccccn1 (stereo not shown) [IODVA1] )
stdout: ~7.7 µM

The origin of these recorded values is patent US11564913B2.
